# tested target: T1, hFc-tagged human 4-1BB extracellular domain protein (4-1BB-hFc) (human, UniProt Q07011 24-186, limits assumed)
# T1 construct: also called immunogen A; 4-1BB^ECD-hFc; not shown: human IgG Fc fragment (hFc) of the pCpC vector
# test name: ELISA, coated human 4-1BB-hFc; Ab 0.016 ug/ml
Examples of binders with documented OD450 nm follow.
Give the value, in units of OD450 nm, as a plain number.

1. 118F3A2 (antibody, V domains shown) VH: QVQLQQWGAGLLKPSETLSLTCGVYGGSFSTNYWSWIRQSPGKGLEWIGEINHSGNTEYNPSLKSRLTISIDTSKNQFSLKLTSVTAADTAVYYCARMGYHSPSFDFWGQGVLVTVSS VL: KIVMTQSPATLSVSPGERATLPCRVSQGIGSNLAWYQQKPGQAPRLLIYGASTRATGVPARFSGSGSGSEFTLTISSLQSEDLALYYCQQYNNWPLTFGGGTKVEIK | 0.99

**Q:** Give the measured OD450 nm of 15G10D4 (antibody, V domains shown) VH: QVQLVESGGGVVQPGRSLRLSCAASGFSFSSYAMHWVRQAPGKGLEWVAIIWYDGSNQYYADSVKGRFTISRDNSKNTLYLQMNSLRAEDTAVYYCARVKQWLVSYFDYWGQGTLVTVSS VL: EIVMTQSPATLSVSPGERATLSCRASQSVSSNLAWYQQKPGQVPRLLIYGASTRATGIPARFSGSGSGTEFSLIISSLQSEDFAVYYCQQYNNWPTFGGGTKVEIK .
**A:** 1.72

**Q:** // next record 172E3E3 (antibody, V domains shown) VH: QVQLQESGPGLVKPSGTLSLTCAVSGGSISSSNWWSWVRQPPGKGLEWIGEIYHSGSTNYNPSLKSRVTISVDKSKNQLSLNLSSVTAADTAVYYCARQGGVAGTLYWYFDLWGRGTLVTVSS VL: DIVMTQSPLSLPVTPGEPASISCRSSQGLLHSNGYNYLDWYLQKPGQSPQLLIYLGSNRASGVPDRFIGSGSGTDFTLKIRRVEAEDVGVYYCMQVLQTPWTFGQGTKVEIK
**A:** 1.65
